Attribute: cell scattering score, HPAF-II, 0.037 nM
# measured_on: native human MET on living human cells (human, UniProt P08581 25-1390)
# Sequence (P08581 25-1390): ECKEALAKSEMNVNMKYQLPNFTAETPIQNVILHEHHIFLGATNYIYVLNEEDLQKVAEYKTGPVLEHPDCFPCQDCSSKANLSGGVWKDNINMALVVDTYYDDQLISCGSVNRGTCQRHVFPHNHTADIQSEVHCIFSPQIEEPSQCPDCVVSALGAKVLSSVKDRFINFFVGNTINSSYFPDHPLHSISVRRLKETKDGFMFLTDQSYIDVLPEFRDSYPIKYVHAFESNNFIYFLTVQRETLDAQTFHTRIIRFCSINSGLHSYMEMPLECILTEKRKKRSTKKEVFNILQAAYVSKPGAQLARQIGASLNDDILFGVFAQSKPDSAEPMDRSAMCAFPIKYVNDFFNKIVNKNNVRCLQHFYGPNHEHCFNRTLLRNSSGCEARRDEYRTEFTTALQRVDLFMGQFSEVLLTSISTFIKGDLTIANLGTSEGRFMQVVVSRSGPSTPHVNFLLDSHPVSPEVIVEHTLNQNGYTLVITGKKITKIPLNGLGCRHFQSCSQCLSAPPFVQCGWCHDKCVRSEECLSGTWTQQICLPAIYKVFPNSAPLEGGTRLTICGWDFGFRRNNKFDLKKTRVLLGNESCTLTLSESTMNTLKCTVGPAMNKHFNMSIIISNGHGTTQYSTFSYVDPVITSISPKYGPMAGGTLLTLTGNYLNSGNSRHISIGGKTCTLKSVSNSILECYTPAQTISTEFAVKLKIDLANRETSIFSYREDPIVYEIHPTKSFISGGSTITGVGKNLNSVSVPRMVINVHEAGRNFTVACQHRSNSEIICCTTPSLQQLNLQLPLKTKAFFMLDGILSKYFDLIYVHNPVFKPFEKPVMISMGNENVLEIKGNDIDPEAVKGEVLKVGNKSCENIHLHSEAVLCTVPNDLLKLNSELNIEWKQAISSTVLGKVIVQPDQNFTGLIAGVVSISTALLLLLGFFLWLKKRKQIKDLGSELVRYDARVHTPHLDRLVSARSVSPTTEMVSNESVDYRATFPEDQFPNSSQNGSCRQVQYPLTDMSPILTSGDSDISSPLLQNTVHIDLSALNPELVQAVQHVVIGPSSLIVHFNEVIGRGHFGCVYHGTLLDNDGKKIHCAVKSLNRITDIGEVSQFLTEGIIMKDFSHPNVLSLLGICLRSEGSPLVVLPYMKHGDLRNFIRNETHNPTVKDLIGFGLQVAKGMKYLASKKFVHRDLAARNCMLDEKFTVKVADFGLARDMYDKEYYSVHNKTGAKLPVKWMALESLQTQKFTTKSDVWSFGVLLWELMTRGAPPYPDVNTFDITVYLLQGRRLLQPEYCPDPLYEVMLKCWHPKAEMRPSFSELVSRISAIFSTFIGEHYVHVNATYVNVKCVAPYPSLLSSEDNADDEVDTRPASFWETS
# assay_info: cell-based or functional assay
Please respond with the number in score 0-4 and leave the unit unwritten.

For orientation, consider the following solved cases.
binder | observed_result
chimeric llama-human IgG1 mAb 76G7 (antibody, V domains shown) VH: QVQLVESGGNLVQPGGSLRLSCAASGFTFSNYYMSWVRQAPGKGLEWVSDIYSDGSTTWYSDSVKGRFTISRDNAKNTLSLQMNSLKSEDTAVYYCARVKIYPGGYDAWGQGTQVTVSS VL: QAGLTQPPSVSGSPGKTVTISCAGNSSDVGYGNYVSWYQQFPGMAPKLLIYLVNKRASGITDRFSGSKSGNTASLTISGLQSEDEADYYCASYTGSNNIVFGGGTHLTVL | 0
chimeric llama-human IgG1 mAb 76H10 (antibody, V domains shown) VH: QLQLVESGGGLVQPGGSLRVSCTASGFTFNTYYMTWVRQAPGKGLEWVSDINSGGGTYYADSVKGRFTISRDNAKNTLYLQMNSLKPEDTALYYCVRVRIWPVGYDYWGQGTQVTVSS VL: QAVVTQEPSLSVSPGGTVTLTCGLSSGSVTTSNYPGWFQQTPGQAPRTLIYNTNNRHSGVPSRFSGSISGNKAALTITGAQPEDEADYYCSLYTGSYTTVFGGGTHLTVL | 0

Entry chimeric llama-human IgG1 mAb 71D6 (antibody, V domains shown) VH: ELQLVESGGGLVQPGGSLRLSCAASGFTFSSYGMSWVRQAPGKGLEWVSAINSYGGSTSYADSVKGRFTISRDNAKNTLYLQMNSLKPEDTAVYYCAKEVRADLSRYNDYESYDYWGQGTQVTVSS VL: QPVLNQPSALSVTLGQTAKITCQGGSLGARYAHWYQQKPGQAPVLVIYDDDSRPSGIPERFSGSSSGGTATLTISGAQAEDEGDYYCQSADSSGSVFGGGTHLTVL has what cell scattering score, HPAF-II, 0.037 nM?
3
